Tested on: Plasmodium berghei
Experiment: Screen against P. berghei liver stage (PbLuc), transformed with Luciferase, at 10uM
Type: functional, HepG2
Details: tested at 10 uM
The campaign covered roughly 69,000 compounds. About 8,600 (12%) showed an effect of 50% or more. What follows is part of a selection rich in strong results, with near analogues and random picks from the rest.
Label rule, in plain words: INHIBITION of 40% and up is 1.0, under 40% is 0.0.

Illustrative cases are given below, each with its answer.
INSERT INTO assay_data (compound, qualitative_label) VALUES
  ('COc1cccc2cc(CNC(=O)N3CCC(C(N)=O)CC3)oc12', 0.0),
  ('Cc1c(-c2cc(C(F)F)nc3sc(C(N)=O)c(N)c23)cnn1C', 0.0),
  ('COc1ccc(F)cc1-n1cnc(CCNC(C)=O)c1', 0.0);

Does O=C(Nc1ccc(Cl)cc1C(=O)NCCN1CCOCC1)c1ccco1 have a reported INHIBITION of at least 40%? 0.0

Does N#Cc1cccc(C(=O)N2C[C@@H]3CC[C@H]2CN(C(=O)C2CCC2)C3)c1 have a reported INHIBITION of at least 40%? 0.0

Does COC(=O)CC1c2cccnc2C(=O)N1Cc1ccccc1 (stereo unspecified) have a reported INHIBITION of at least 40%? 0.0

Does Cc1nc(-c2ccco2)ccc1C(=O)NCCCN1CCOCC1 have a reported INHIBITION of at least 40%? 0.0

Does CN(C)CCCNC(=O)c1cc(-c2ccc3c(c2)CCO3)n[nH]1 have a reported INHIBITION of at least 40%? 1.0

Does O=C(NCCO)c1cc(-c2ccc3c(c2)CCO3)n[nH]1 have a reported INHIBITION of at least 40%? 0.0

Does CCn1ncc(-c2cc(C(F)F)nc3sc(C(N)=O)c(N)c23)c1C have a reported INHIBITION of at least 40%? 1.0

Does O=C(Nc1ccc(I)cc1C(=O)NCCN1CCOCC1)c1ccco1 have a reported INHIBITION of at least 40%? 1.0

====

Test system: Plasmodium berghei
Assay: Screen against P. berghei liver stage (PbLuc), transformed with Luciferase, at 10uM
Assay type: functional, HepG2
Settings: tested at 10 uM
The whole screen tested about 69,000 compounds, of which about 8,600 (12%) showed an effect of 50% or more. The sample as a whole holds a higher share of strong results than the screen did.
List of INHIBITION values.
Just the number in %, nothing appended.

Illustrative cases are given below, each with its answer.
INSERT INTO measurements (compound, recorded_value) VALUES
  ('CCCn1cc(C(=O)N2CCCC(Cc3nccs3)C2)cn1 (stereo unspecified)', 17.4),
  ('O=C(NC1CC1)N1C[C@@H]2CCN(C(=O)c3cscn3)[C@@H]2C1', -1.28),
  ('CC1CCN(C(=O)c2sccc2-n2cnnn2)CC1', 20.3),
  ('NC(=O)C1(c2cnccn2)CCCN1Cc1ccc(Cl)c(F)c1 (stereo unspecified)', -6.3),
  ('COC(=O)C1Cc2nc[nH]c2CN1Cc1ccc(Sc2ncccn2)o1 (stereo unspecified)', 35.7),
  ('COC(=O)[C@@H]1Cc2[nH]cnc2CN1Cc1cc2ccccc2o1', 56.8),
  ('O=C([C@@H]1Cc2[nH]cnc2CN1Cc1cc2ccccc2o1)N1CCCC1', -67.6),
  ('c1cnnc(N2CCCC2CNCc2csc(-c3ccco3)n2)c1 (stereo unspecified)', 31.95),
  ('COc1cc(NCC(O)CN2CCCCCC2)ncn1 (stereo unspecified)', -25),
  ('CC(C)NC(=O)Nc1ccc(CS(=O)(=O)C(C)(C)C)cc1', -8.69);

Then this compound:
Please report INHIBITION for the following compound: O=C(c1cnc(C2CC2)nc1)N1CCCC(c2nccs2)C1 (stereo unspecified) 52

Origin of values: ChEMBL document CHEMBL4513216
